Biological target: Calmodulin-1 (Homo sapiens) (UniProt P0DP23)
Assay: calcium-bound CALM1 binders on microarrays, profiling panel, artefact control for SMM control-protein annotation, biochemical, small-molecule microarray, Cy5-labelled CALM1, plus calcium (AID 1112);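 further: score merges spot fluorescence with signal to noise from triplicate slides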
Details: Cy5-CALM1 binding fluorescence, higher = more signal
Measured attribute: composite z-score
Write the number on its own, no unit after it.

O=C1O[C@@H](c2ccccc2)[C@@H](c2ccccc2)N2[C@@H](c3ccc(OCCO)cc3)[C@]3(C(=O)Nc4ccc(C#CC5(O)CCCCCC5)cc43)[C@@H](C(=O)NC[C@H](O)c3ccccc3)[C@H]12 | 0.638
CC(C)N1CC=CC23O[C@@H]4/C=C\CCCOC(=O)C4[C@H]2C(=O)N(CCCO)[C@@H]3C1=O (some centres undefined) | 0.412
COc1ccc(CCNC(=O)[C@@]2(Sc3ccc(C)cc3)CC(=O)N(Cc3ccccc3)[C@@H]2c2ccc(CO)cc2I)cc1 | -0.0032
COc1ccc(C#Cc2ccc3c(c2)[C@]2(C(=O)N3)[C@H](c3ccc(O)cc3)N3[C@H](c4ccccc4)[C@H](c4ccccc4)OC(=O)[C@H]3[C@@H]2C(=O)N2CCN(c3ncccn3)CC2)cc1 | 0.707
C=C(COC)/C(=C/C[C@H](OC(C)=O)c1ccc(CO)o1)c1cnc2ccccc2c1 | -0.387
C=C[C@H](OC)[C@@H](OC(=O)Nc1ccc(OC)cc1)c1ccc(OC)c(O)c1 | -0.137
COCCOC(=O)N1C(=O)[C@@]2(c3cc(C#CCCO)ccc31)[C@H](c1ccccc1OCCO)N1[C@H](c3ccccc3)[C@H](c3ccccc3)OC(=O)[C@H]1[C@@H]2C(=O)NC[C@H](O)c1ccccc1 | 0.678
CC(C)C[C@@H]1NC(=O)[C@H]2C[C@@H](C(=O)NCCCC[N+](C)(C)C)[C@@H](c3cccc(OCCO)c3)N2C1=O | 0.75
C=C(CCCC)/C(=C/C[C@@H](OC(=O)c1ccncc1)c1ccc(OCCO)cc1)c1cnc2ccccc2c1 | -0.184
C[N+](C)(C)CCCC[C@@H]1NC(=O)[C@@H]2C[C@H](C(=O)NCCCCCNC(=O)CS)[C@H](c3ccc(O)cc3)N2C1=O | 0.669

## Input Let me know recorded composite z-score for [N-]=[N+]=NCc1ccccc1C[C@@]1(C(=O)O)N=C(c2ccc(OCCCO)cc2)O[C@@H]1c1ccccc1 , thanks.
## Output 1.36

## Input Output measured composite z-score for this item: CCCNC(=O)[C@@H]1c2ccccc2C(=O)N(Cc2cc(C(F)(F)F)cc(C(F)(F)F)c2)[C@H]1c1ccc(CO)cc1
## Output 0.544

## Input Find the measured composite z-score of C=C(C1=CCN(S(=O)(=O)c2ccc(C)cc2)C1)[C@@H](OC(C)=O)[C@@H]1CCCN1S(=O)(=O)c1ccccc1[N+](=O)[O-] and report it.
## Output -0.856

## Input Return composite z-score (reported value) for this compound: C=C(C(=O)CC[C@H](OC(C)=O)c1ccc(CO)o1)C(C)C
## Output -0.758

###

Assay: PSAC antagonists in infected red cells, primary screen, cell-based, P. falciparum Indochina, OD700, 18 h (AID 1157)
Details: P. falciparum Indochina infected erythrocytes, osmotic lysis OD700, 18 h; higher = more signal, called active from +8 up or from −8 down
Measured attribute: z-score
Keep it simple and answer with nothing but the number.

COCCCNC(=O)[C@@]1(C)c2ccccc2C(=O)N(Cc2cc(F)cc(C(F)(F)F)c2)[C@H]1c1ccc(CO)cc1 | 0.0567
O=C(NO)[C@]1(Cc2ccccc2)N=C(c2ccc(OCCCO)cc2)O[C@@H]1c1ccccc1 | -0.21
COc1ccc([Si](C)(C)[C@@H]2[C@@H](CCn3cc([C@H](O)c4ccccc4)nn3)O[C@]3(C(=O)N(C)c4c(Br)cc(C)cc43)[C@H]2C)cc1 | 0.083

Then this molecule:
## Input Fill in z-score for record COC(=O)c1c2oc(c1C(=O)OC)C(=O)N[C@@H](C(C)C)Cn1nncc1C1(CCCCC1)NC(=O)N[C@H](CO)CC2
## Output 1.41

###

Assay: yeast growth modulation, basal conditions, primary screen, YJM789 clinical isolate, OD600, 24 h (AID 1089);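 further: growth of clinical yeast isolate S. cerevisiae YJM 789 seeded 1000 cells per well; test concentration not given here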
Settings: S. cerevisiae YJM789 growth, higher = more signal, called active from +8 up or from −8 down
Measured attribute: z-score
// no unit string in output, number only

Known results for molecules:
C/C=C/[C@@H](CCn1cc(CCO[Si](C(C)C)(C(C)C)C(C)C)nn1)[Si](C)(C)c1ccc(OC)cc1 | -3.08
NC(=O)NCC#Cc1ccc2c(c1)[C@]1(C(=O)N2)[C@H](c2ccc(OCCO)cc2)N2[C@H](c3ccccc3)[C@H](c3ccccc3)OC(=O)[C@H]2[C@@H]1C(=O)Nc1nc2ccccc2s1 | 2.55
COCCOC(=O)N1C(=O)[C@@]2(c3cc(C#CC4(O)CCCCCC4)ccc31)[C@H](C(=O)NC[C@H](O)c1ccccc1)[C@H]1C(=O)O[C@H](c3ccccc3)[C@H](c3ccccc3)N1[C@@H]2c1ccccc1OCCO | 2.64
C=CCNC(=O)[C@H]1[C@@H]2C(=O)O[C@@H](c3ccccc3)[C@@H](c3ccccc3)N2[C@@H](c2ccc(OCCO)cc2)[C@]12C(=O)Nc1ccc(C#CCCO)cc12 | 0.443

## Input Identify measured z-score associated with COCCOC(=O)N1C(=O)[C@@]2(c3cc(C#CCNC(N)=O)ccc31)[C@H](C(=O)NC[C@H](O)c1ccccc1)[C@H]1C(=O)O[C@H](c3ccccc3)[C@H](c3ccccc3)N1[C@@H]2c1ccc(O)cc1
## Output -0.124

###

Experiment: splicing luciferase reporter signal modulators, primary screen, spliceosome inhibition project, cell-based, HEK293, splice +/- reporter (AID 1101);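 further: HEK293 cells carrying a splicing-competent luciferase reporter gene; test concentration not given here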
Conditions: luminescence, 24 h, higher = more signal, called active from +8 up or from −8 down
Measured attribute: z-score
No unit in the answer, please; the number alone is enough.

These solved cases illustrate the format of a correct answer.
CN(C)CCCC[C@@H]1NC(=O)[C@@H]2C[C@H](C(=O)NCCCCCNC(=O)CS)[C@H](c3cccc(OCCO)c3)N2C1=O | -3.22
C[N+](C)(C)CCCC[C@@H]1NC(=O)[C@@H]2C[C@H](C(=O)NCCCCCNC(=O)CS)[C@H](c3ccc(O)cc3)N2C1=O | 4.12
C=C(COC)C(=O)CC[C@@H](OC(=O)c1ccccc1-c1ccccc1C(=O)O)c1cccc(OCCO)c1 | 0.306
C=CCC(OC(C)=O)[C@@H]1[C@@H](N(Cc2ccc(-c3ccccc3)cc2)C(=O)c2ccc(-c3ccccc3)cc2)c2cc(OCCCO)ccc2N1C(=O)c1ccc(-c2ccccc2)cc1 (stereo partly drawn) | -1.34
C=C(CCCC)/C(=C/C[C@H](OC(=O)c1ccncc1)c1ccc(CO)o1)c1cnc2ccccc2c1 | -0.964
CCN(CC)c1ccc(N2CC=CC34O[C@@H]5C=CCOC(=O)[C@@H]5[C@H]3C(=O)N(C(C)CO)[C@@H]4C2=O)cc1 (stereo partly drawn) | -0.405
C#CCN1C(C(=O)OCC)OC[C@H]1c1ccccc1 (stereo partly drawn) | -0.577

Turning now to a further record.
## Input Note down z-score recorded for CC(C)N1CC=CC23O[C@@H]4/C=C\CCCOC(=O)C4[C@H]2C(=O)N(CCCO)[C@@H]3C1=O (stereo partly drawn)
## Output 0.073

###

Assay: binders of probe aFSTL3 on microarray, primary screen, stem cell growth factor project, biochemical, small-molecule microarray, fluorescence 635/667 (AID 1064);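 further: measures binding of the biotinylated anti-FSTL3 antibody to printed compounds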
Settings: higher = more signal
Measured attribute: composite z-score
Form rule: numeric answer, no unit written next to it.

Check out these entries, answers already filled in.
C=C1C=C(Br)C2(OCCCO2)[C@H]2OC12 (some centres undefined) | -0.199
CO[C@H]1O[C@H](CO)[C@@H](OC(=O)Nc2ccccc2)[C@H](OC(=O)Nc2ccccc2-c2ccccc2)[C@@H]1OC(=O)Nc1ccccc1-c1ccccc1 | -0.711
C#CCN1C(C(=O)OCC)OC[C@H]1c1ccccc1 (some centres undefined) | -0.551

Now for the compound whose composite z-score we want.
## Input Please supply the value of reported composite z-score for the item C=CCNC(=O)[C@@H]1[C@H]2C(=O)O[C@H](c3ccccc3)[C@H](c3ccccc3)N2[C@H](c2ccc(O)cc2)[C@@]12C(=O)Nc1ccc(C#Cc3ccc(OC)cc3)cc12
## Output -0.112

###

Assay: E. coli acrAB mutant growth effects, primary screen, E. coli filamentation inducers, strain DRC39, OD650, 24 h (AID 1178);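 further: growth measured as culture turbidity by optical density at 650 nm; test concentration not given here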
Conditions: higher = more signal, called active from +8 up or from −8 down
Measured attribute: z-score
Number, no unit, nothing else.

The examples below pair each entry with its known result.
O=C1O[C@@H](c2ccccc2)[C@@H](c2ccccc2)N2[C@@H](c3ccc(OCCO)cc3)[C@]3(C(=O)Nc4ccc(C#CC5(O)CCCCCC5)cc43)[C@@H](C(=O)NC[C@H](O)c3ccccc3)[C@H]12 | 1.06
CC(C)C[C@@H]1NC(=O)[C@@]23C(=O)N[C@@H](Cc4ccccc4)C2[C@H](C)[C@@]2(C)O[C@H]2C3/C=C/C/C=C\CNC(=O)[C@H](Cc2ccccc2)NC1=O (stereo partly specified) | 2.7
CCCCC(=C=CC[C@@H](O)c1ccc(OCCO)cc1)C[C@@H](O)c1cc(Cl)cc(Cl)c1O | 3.34
COCCOC(=O)N1C(=O)[C@@]2(c3cc(C#CC4(O)CCCCCC4)ccc31)[C@H](c1ccccc1OCCO)N1[C@H](c3ccccc3)[C@H](c3ccccc3)OC(=O)[C@H]1[C@@H]2C(=O)Nc1nc2ccccc2s1 | -0.0438
CC(C)NC(=O)[C@@H]1c2ccccc2C(=O)N(Cc2cc(F)cc(C(F)(F)F)c2)[C@H]1c1ccc(CO)cc1 | 1.33

## Input Name the recorded z-score of the item CC(=O)OC(C/C=C\B1OC(C)(C)C(C)(C)O1)c1ccccc1 (stereo unspecified) in your answer.
## Output 1.5

## Input Write down z-score measured for item O=C(O)[C@H]1C[C@H]2C(=O)NCC(=O)N2[C@H]1c1cccc(OCCO)c1
## Output 0.712

## Input // Input: CC(C)C[C@@H]1NC(=O)[C@@H]2C[C@H](C(=O)NCCCCCNC(=O)CS)[C@H](c3cccc(OCCO)c3)N2C1=O . Output its z-score only.
## Output 0.186

## Input Supply recorded z-score for C=CCC(OC(C)=O)[C@@H]1[C@@H](N(Cc2cccc3ccccc23)C(=O)c2cccc3ccccc23)c2cc(OCCCO)ccc2N1C(=O)Cc1ccc(OC)cc1 (stereo partly specified) here.
## Output 1.35

## Input Give me measured z-score, please, for this compound: O=C(NCC(F)(F)F)[C@@H]1c2ccccc2C(=O)N(C2Cc3ccccc3C2)[C@H]1c1ccc(CO)cc1
## Output 0.46

## Input Look up and report measured z-score for this entry: C=C(C1=CCN(S(=O)(=O)c2ccc(C)cc2)C1)[C@@H](OC(C)=O)[C@@H]1CCCN1S(=O)(=O)c1ccccc1[N+](=O)[O-]
## Output 2.93

## Input Quickly give me recorded z-score for CC(C)[C@@H](C(=O)O)n1cc(-c2ccccn2)nn1
## Output 1.87

## Input Please indicate z-score recorded for NCCCCCCNC(=O)[C@@H]1C[C@@H]2C(=O)N[C@@H](Cc3ccccc3)C(=O)N2[C@@H]1c1ccc(O)cc1
## Output 0.236

## Input Supply z-score value. Item: C[C@@H](OCc1ccccc1)C1NC(=O)[C@@]23C(=O)N[C@@H](Cc4ccccc4)C2[C@H](C)[C@@]2(C)O[C@H]2C3/C=C/C/C=C\CNC(=O)[C@@H]2CCCN2C1=O (stereo partly specified)
## Output 2.53

## Input State its z-score: C=CC[C@@]1(C(=O)NCc2ccccc2)N=C(c2ccc(OCCCO)cc2)O[C@@H]1c1ccccc1
## Output 0.254

## Input Tell us which z-score value is on record for CC(CO)N1C(=O)[C@@H]2C3C(=O)OCCC/C=C\[C@H]3OC23C=CCN(Cc2ccccc2)C(=O)[C@@H]13 (stereo partly specified)
## Output 1.6
